Data origin: the supplement of paper PMC9170038

The following sequences are shown together with reported apparent KD of K4 kissing-loop reporter values.
- System: K4 kissing-loop RNA reporter;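 also: bound reporter read as fluorescence of individual clusters on recovered sequencing chips by microscopy, with normalized cluster intensities fitted with a binding model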
- TEST: apparent KD of K4 kissing-loop reporter; higher = weaker reporter binding
- COND: Eterna round: R107; input ligand: tryptophan 2.4 mM
Numeric only. Scale: nM

With K4 kissing-loop RNA reporter as the test system, UUCCUAUUAUUAACACUAUAUACAACUGAAGGAGCGACAAUAAAGUCAGGUAGGUCGCAGAAUUAAUGAGUGAUGUUCAUUUUUA [JR_ExcArginiA_Sub013] showed apparent KD of K4 kissing-loop reporter of 60.9

Lab note: sequence UUAAUAAUUCAAGGAUAUGUUUUUUUUUUCGAGUGAUGUUCGGAAUUAAUAAAUUUAAAAGAUUAUACAGAAGGUGAUAAAUAGU [Cynwulf-mod#1] tested on K4 kissing-loop RNA reporter; recorded apparent KD of K4 kissing-loop reporter was 88.6

Form field apparent KD of K4 kissing-loop reporter for item AUAAUUAUAUAGAAAUAUAUAAUUAUAUAACGAGGACCGGUACGGCCGCCACUCGUGCCGGGCAUAAAAUGAGUGAUGUUCAUGU [KL-XTryp-A7 #analogue] on K4 kissing-loop RNA reporter: 198

The reported apparent KD of K4 kissing-loop reporter value, K4 kissing-loop RNA reporter, for GAUGGUGGCAGUGAAGUGAUGUUUCAUGAUACCAGUUUUAUAAGUAACCCUUGGCAGCAUCGUACGCAGCGUAGUGGACAUCACG [theeternabot_exclusion_KL_Theo_A_25] reads 149

Item: UGACUGGACUGAAGGAGCGCGCGAGACAAAGUCUCGAACUCCUAGUGAUGUUAGGAAAUAACGCAGGUAGGUCGCAGUCUAGUCU [ArgBS 10 #SwitchBubble #StaticStem #DoubleMagnet] | System: K4 kissing-loop RNA reporter | apparent KD of K4 kissing-loop reporter: 241
